- assaySystem: ΔF508-CFTR (Homo sapiens, UniProt P13569, DEL508-508)
- Sequence (P13569 with tags, fused parts or gaps DEL508-508): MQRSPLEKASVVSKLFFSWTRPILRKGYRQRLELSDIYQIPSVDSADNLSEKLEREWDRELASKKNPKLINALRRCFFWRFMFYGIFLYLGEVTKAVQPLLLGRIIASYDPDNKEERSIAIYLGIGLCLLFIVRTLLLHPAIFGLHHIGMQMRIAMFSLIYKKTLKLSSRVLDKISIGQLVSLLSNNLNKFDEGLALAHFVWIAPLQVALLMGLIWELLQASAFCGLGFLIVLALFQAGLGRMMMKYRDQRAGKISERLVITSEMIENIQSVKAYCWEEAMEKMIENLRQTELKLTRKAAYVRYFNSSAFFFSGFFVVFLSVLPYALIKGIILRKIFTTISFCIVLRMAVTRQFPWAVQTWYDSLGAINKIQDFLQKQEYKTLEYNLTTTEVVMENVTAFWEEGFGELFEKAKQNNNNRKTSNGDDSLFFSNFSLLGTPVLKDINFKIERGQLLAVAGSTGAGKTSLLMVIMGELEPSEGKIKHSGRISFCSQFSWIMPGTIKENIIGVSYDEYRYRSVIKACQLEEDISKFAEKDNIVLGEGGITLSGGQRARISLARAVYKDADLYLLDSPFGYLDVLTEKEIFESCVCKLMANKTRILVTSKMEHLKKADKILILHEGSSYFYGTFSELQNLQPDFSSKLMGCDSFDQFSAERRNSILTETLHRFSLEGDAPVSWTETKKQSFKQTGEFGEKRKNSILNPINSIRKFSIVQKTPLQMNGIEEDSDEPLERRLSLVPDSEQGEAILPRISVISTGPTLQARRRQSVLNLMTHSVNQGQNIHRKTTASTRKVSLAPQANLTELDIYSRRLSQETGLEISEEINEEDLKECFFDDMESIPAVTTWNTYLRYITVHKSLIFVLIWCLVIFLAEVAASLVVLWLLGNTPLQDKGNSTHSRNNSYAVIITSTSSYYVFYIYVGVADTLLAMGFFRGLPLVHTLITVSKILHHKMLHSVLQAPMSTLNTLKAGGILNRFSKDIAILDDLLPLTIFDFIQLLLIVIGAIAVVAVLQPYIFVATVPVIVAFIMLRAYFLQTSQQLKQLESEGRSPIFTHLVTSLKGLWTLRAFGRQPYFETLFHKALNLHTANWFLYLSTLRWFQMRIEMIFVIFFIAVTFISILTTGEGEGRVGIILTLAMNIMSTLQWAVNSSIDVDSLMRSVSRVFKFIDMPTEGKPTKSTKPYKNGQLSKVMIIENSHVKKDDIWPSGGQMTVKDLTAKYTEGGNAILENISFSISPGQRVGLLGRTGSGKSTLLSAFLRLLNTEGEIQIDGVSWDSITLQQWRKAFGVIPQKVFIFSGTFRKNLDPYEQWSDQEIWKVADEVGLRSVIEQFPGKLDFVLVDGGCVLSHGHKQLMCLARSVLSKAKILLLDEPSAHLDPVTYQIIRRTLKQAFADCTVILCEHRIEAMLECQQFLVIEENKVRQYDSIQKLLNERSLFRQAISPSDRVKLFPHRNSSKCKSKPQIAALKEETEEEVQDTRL
- assaySummary: Membrane potential optical (FRET/VIPR) assay, identification of potentiator compounds
- measurementParameters: Table 3; assay not given
pEC50: −log10 of the molar value.
measurementType: pEC50

Lookup: Give pEC50 for O=C(Nc1cccn2ncnc12)c1c[nH]c2ccccc2c1=O
Found: 4.22 to 4.60

Lookup: Quick one: give measured pEC50 for CC(C)c1ccc(NC(=O)c2c[nH]c3ccccc3c2=O)cc1N(C)C
Found: > 5.00

Lookup: Please indicate pEC50 recorded for O=C(Nc1cccc(-c2cccs2)c1)c1c[nH]c2ccccc2c1=O
Found: > 5.00

Lookup: Tell me measured pEC50 for CC(C)N1CCN(c2ccc(NC(=O)c3c[nH]c4ccccc4c3=O)c(C(F)(F)F)c2)CC1 please.
Found: > 5.00

Lookup: Indicate its recorded pEC50; the compound in question is CC(C)n1cc(C(=O)Nc2ccccc2)c(=O)c2ccccc21
Found: 4.60 to 5.00

Lookup: Look up and state reported pEC50 for COC(=O)Nc1ccc(C(C)C)c(NC(=O)c2c[nH]c3ccccc3c2=O)c1
Found: > 5.00

Lookup: Return pEC50 (reported value) for this compound: O=C(Nc1ccccc1-c1csc2ccccc12)c1c[nH]c2ccccc2c1=O
Found: > 5.00

Lookup: Provide measured pEC50 value, entry: CC(C)(C)OC(=O)NCc1cc(NC(=O)c2c[nH]c3ccccc3c2=O)ccc1C(C)(C)C
Found: > 5.00

Lookup: Name the recorded pEC50 of the item Cc1cccnc1NC(=O)c1c[nH]c2ccccc2c1=O in your answer.
Found: 4.22 to 4.60
